In this section we review reported melting point values for a set of compounds.

Study these solved cases before continuing.
COc1ccc(CNc2nc(-c3nccs3)c3sccc3n2)cc1OC	178.7 to 179.5 °C
CN(C)c1nc(-c2ccco2)c2scc(NC(=O)Nc3ccccc3)c2n1	244.4 to 244.9 °C
FC(F)(F)c1nc(-c2ccco2)c2sccc2n1	147.6 to 148.8 °C
CN(C)c1nc(-c2ccco2)c2scc(Br)c2n1	118.7 to 119.5 °C
CCc1nc(-c2nncn2C)c2sccc2n1	110.2 to 111.4 °C

So for Cc1csc2c(-c3ccco3)nc(NCCO)nc12 , the logged melting point turned out to be 149.9 to 150.6 °C

So for CCSc1nc(-c2ccco2)c2sccc2n1 , the logged melting point turned out to be 207 to 208 °C

So for NC(=O)c1nc(-c2ccco2)c2sccc2n1 , the logged melting point turned out to be 300 °C (dec.)

So for c1coc(-c2nc(Cc3cccs3)nc3ccsc23)c1 , the logged melting point turned out to be 149 °C

So for Cc1cnc(-c2nc(Cl)nc3ccsc23)s1 , the logged melting point turned out to be 243 to 244 °C

So for CS(=O)(=O)Nc1csc2c(-c3ccco3)nc(Cl)nc12 , the logged melting point turned out to be 211.9 °C

So for COc1ccc(CNc2nc(-c3ccco3)c3sccc3n2)cc1OC , the logged melting point turned out to be 155 to 156 °C

So for C=CCNc1nc(-c2ccco2)c2sccc2n1 , the logged melting point turned out to be 101 to 102 °C

====

In this section we review reported melting point values for a set of compounds.

So for CC(=O)Nc1nc(-c2ccco2)c2sccc2n1 , the logged melting point turned out to be 193.9 to 195 °C

So for OC[C@H]1CCCN1c1nc(-c2cccs2)c2sccc2n1 , the logged melting point turned out to be 128.5 to 128.9 °C

So for Cn1nccc1-c1nc(Cl)nc2ccsc12 , the logged melting point turned out to be 141 to 142 °C

So for CN(C)c1nc(-c2nccn2COCC[Si](C)(C)C)c2sccc2n1 , the logged melting point turned out to be 131 to 132 °C

So for CC(=O)CC(=O)N(C)c1nc(-c2ccco2)c2sccc2n1 , the logged melting point turned out to be 108.3 to 108.6 °C

So for CCc1nc(-c2nccn2COC)c2sccc2n1 , the logged melting point turned out to be 69 to 70 °C

So for Clc1nc(-c2ccco2)c2sccc2n1 , the logged melting point turned out to be 146.9 to 147.6 °C

====

In this section we review reported melting point values for a set of molecules.

OC[C@H]1CCCN1c1nc(-c2ccco2)c2sccc2n1	109 to 110 °C
CCc1nc(-c2ccco2)c2sc(C)cc2n1	104.7 to 104.8 °C
OCCNc1nc(-c2cc3ccccc3s2)c2sccc2n1	173.4 to 174.4 °C
CC(=O)Nc1csc2c(-c3ccco3)nc(N(C)C)nc12	210.9 to 211.3 °C

Consider the record given below.
So for OCCNc1nc(-c2ccco2)c2scc(Br)c2n1 , the logged melting point turned out to be 173.4 to 174.4 °C

====

In this section we review reported melting point values for a set of compounds.

Study these solved cases before continuing.
Cc1ccc(-c2nc(Cl)nc3ccsc23)nc1	221 to 222 °C
Clc1nc(-c2cnccn2)c2sccc2n1	183.2 to 183.8 °C
CCc1nc(-c2nc3ccccc3s2)c2sccc2n1	131 °C

So for Cc1csc2c(-c3ccco3)nc(Cl)nc12 , the logged melting point turned out to be 164.4 to 164.9 °C

So for CC(=O)Nc1nc(-c2nccs2)c2sccc2n1 , the logged melting point turned out to be 242.6 to 243.9 °C

So for OCCNc1nc(-c2cnccn2)c2sccc2n1 , the logged melting point turned out to be 191.5 to 192.4 °C

So for CN(C)c1nc(-c2nccn2CCO)c2sccc2n1 , the logged melting point turned out to be 162.2 to 164.9 °C

So for OC[C@H]1CCCN1c1nc(-c2ccco2)c2scc(Br)c2n1 , the logged melting point turned out to be 75.4 to 76.3 °C
